Assignment: determine reported TGI for the given compounds.
test system: EKVX NSCLC; assay: NCI tumour cell line growth inhibition, 48 h
Where a SMILES comes first, the peptide text is derived from it. [ ]: non-standard residue; d: D form. The star is where a group is joined. ξ: configuration not given here. ξD = NC(CC(=O)O)C(=O)O; Ac3c = NC1(C(=O)O)CC1; Boc = CC(C)(C)OC(=O)*; OtBu = CC(C)(C)O*

In plain terms, COC/N=C(/N)NC#N has a documented TGI of > 100 µM

In plain terms, CCC1C(=O)OCc2c1cc1n(c2=O)C(CC)c2c-1nc1ccccc1c2Cl (stereo not given) has a documented TGI of 80.4 µM

In plain terms, Cc1c2ccncc2c(C)c2c1c1cc(CO)ccc1n2C has a documented TGI of 5.98 µM

I'm hoping you can list TGI for every compound here, please.
1. COC(=O)C1(NC(=O)C(CC(=O)OC(C)(C)C)NC(=O)OC(C)(C)C)CC1 (stereo not given) (Boc-[ξD](OtBu)-[Ac3c]-OMe)
2. C#C[C@H]1CCCCCC1O (stereo not given in full)

1. > 100 µM
2. > 100 µM

I'm hoping you can list TGI for every compound here, please.
1. Clc1nc(Nc2nc3ccccc3[nH]2)nc(Cl)c1Cc1ccccc1
2. COC1=CC(=O)c2c(O)c3c(c(O)c2C1=O)C[C@](C)(O)C[C@@H]3O
3. c1csc(-c2csc(-c3ccsc3)c2)c1
4. Cc1ccc(Sc2oc(-c3ccc(C)cc3)nc2[P+](c2ccccc2)(c2ccccc2)c2ccccc2)cc1
5. COc1cccc(NC(=O)CC(=O)NNCC(=O)Nc2nnc(-c3ccc(N(CCC#N)S(=O)(=O)c4ccccc4)cc3)s2)c1

1: > 100 µM; 2: 23.6 µM; 3: > 100 µM; 4: 1.26 µM; 5: > 100 µM

Cited source: PubChem BioAssay (NCI)
